// provenance: the supplement of paper PMC9170038

Test system: MS2 coat protein
run description: apparent KD of MS2 coat protein; designed switch direction (-1 OFF switch, 1 ON switch): -1; higher = weaker reporter binding
applied conditions: input ligand: FMN 200 uM
Please go through the items and note down their apparent KD of MS2 coat protein.
Answers are plain numbers, in nM.

Would you mind listing apparent KD of MS2 coat protein for each of the following sequences?
1. CUGAAUAGAGGAUAUUGUACUGCUGACAUGAGGAUCACCCAUGUAUGUUAACUCGGCCGUCGAGAAGGCUAACAAA [BotMod 13 - Jieux - Exclusion 5] (Eterna round: R97, puzzle: Exclusion 5)
2. AUAUUACAUGAGGAUCACCCAUGUGAGGAUAUGGAGAGAGACCGCCCGGUCGCGUACACCAGAAGGCGCAGGCG [1st #60] (Eterna round: R97, puzzle: Exclusion 1)
3. UCGUGUAUAGAGGAUAUAUUAUUUUUUUUAACAAUAGAAGGCUAAACAUGAGGAUCACCCAUGUAUUUGGUUUU [JR_Ex6_Sub051] (Eterna round: R97, puzzle: Exclusion 6)
4. ACCUCACAUGAGGAUCACCCAUGUCAGGAUAUCUAAUGUAGUCGCGUUCCCGACGCUAAGAGAAGGGACAUUAA [EX1 #34] (Eterna round: R97, puzzle: Exclusion 1)
5. AAAACGUGAGGAUAUCCAAUAUAUGACAUGAGGAUCACCCAUGUUUCCACUCGUACCUCCGGAGAAGGCACAAUAA [Ex5 #76] (Eterna round: R97, puzzle: Exclusion 5)

### Response
16.9
19.8
69.2
22.6
37.6

---

Tested on: K4 kissing-loop RNA reporter;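 note: bound reporter read as fluorescence of individual clusters on recovered sequencing chips by microscopy, with normalized cluster intensities fitted with a binding model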
run description: apparent KD of K4 kissing-loop reporter; higher = weaker reporter binding
applied conditions: Eterna round: R107; input ligand: FMN 200 uM
Can you tell me apparent KD of K4 kissing-loop reporter for the items I'm about to list?
Numbers only, in nM.

Look over these answered cases.
UGUAUGUGAUUUGAUACCAGACCAGCUGGUGGUAUAUGAGUGAUGUUCAUGUUGGUGUGGGUCCCUUGGCAGCAAAUCGCAUACU [KL-SSTheoB9]
242
AGACCACAAAGUGGUCAGUGUUCGCUGCGGCGAGGACCGGUACGGCCGCCACUCGCGAGUGAUGUUCGCGAGCGCAGCGAACACA [Omei KL Tryp A Exc A v3]
89.4
UUAUUAAUCGCAGAUACCAGUCCAGAAUGAAUACUAUAGUGAUGUUAUAAUAAAGGGAAGGACCCUUGGCAGCUGUAAUAUAUUU [AstrosSsTheB#3]
371
AGAGUUAAUUAGUCAUUUUUCACAUUAAGUCAGGAUAUCGUAUUUUCGAGAAGGGACACAUGCUAGUGAUGUUAGCUAUUUCUCA [JR_Nu_ExcFMNA_Sub021]
63.6
GGUCGAGUGAUGUUCGAUGUAGUGCAUUCAGAGGAUAUAGGAUUGGCUAGAAGGCUGAAACCUUCUUCGAGUGAUGUUCGAGGAU [Same State FMN A GF5]
130

Please state apparent KD of K4 kissing-loop reporter for every sequence in the list that follows.
1. AAUAAGCAUGGAAGGAGCGUAGUCCAGUGAUGUUGGAGUUAAAUACCAGUGAUGUUGGUUAUACAGGUAGGUCGCCAUAAAGCUU [Exclusion Arginine B Gf 6]
2. GGUUAAAGCACCCGGAGUGAUGUUCCGGAUACCAGCAAACCAACUUGCCCUUGGCAGCCGUAUAGCGUCCGGUGGGCCGAGCAUA [Raarce]
3. AGGCACGAGCAAGGAUAUCGAGUAGAGUGAUGUUCUGCCUGGGUUGGCUCGUAAGGGCCUUCCCAGCGAGAAGGUGCUCGUGCCU [#2 Same State - FMN A Attempt #15 (HarryS)]
4. GAGCGGUAGAGGCUACCGCUAUUCUGAGAAGGAGCGCAGAUGACUGCAGGUAGGUCGCUUAGAGCUUGCAGUGAUGUUGCAAGUU [Inzarier]
5. AAUAAGGUCGCCGAUACCAGCGCAGGCAGAGCAAAGCUCUGCCUGGUAGUGAUGUUACCGCGCCCUUGGCAGCGGUGGCACGACC [Omei KL Theo B SS C v5]
6. GCCGUCCGGUCGCAAGACCGGACAGCCGAUACCAGCGCGAAGGCGCGCCCUUGGCAGCGGCACCGAGUGAUGUUCGGUCAGGCGG [#2 Same State - Theophylline A Attempt #2 (HarryS)]
7. AGUGCCGAGUGUGAUACCAGCUUCAUGCAGUGAUGUUGCACACGAGUGAUGUUCGUCCGAGGCCCUUGGCAGCGCAGUCGCUCGA [Same State Theophylline B Gf 30]

### Response
92.4
94.9
221
178
64.8
179
751
